# system: T1, recombinant human BCMA-his fusion protein (ACRO Biosystem, Cat. No. BCA-H522y) (human, UniProt Q02223 1-54)
# T1 construct: extracellular domain; Bought protein; also called huBCMA-his; hu BCMA-his; not shown: His tag
# T1 sequence (looked up): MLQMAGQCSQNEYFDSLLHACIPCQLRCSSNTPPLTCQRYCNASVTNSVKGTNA
# assay overview: ELISA, coated antigen
// returns 0.0 unless EC50 is strictly below 0.02 nM, in which case 1.0

Prompt: A record lists human-mouse chimeric antibody c-mAb2 (antibody, human IgG1, V domains shown, not shown: human IgG1 heavy chain constant region, GenBank No. AK303185.1; human kappa light chain constant region, GenBank No. MG815648.1) VH: QVQLQQSDAELVKPGTSVKISCKVSGYTFTDHTIHWMKQRPEQGLEWIGYIYPRNGNTKYNEKFKGKATLTADKSSSTAYMHLNSLTSEDSAVYFCARYDYDGYFDVWGTGTTVTVSS VL: DVVMTQTPLSLPVSLGDQASISCRSSQSHVHSDGHTYLHWYLQKPGQSPELLIYKVSNRFSGVPDRFSGSGSGTDFTLKISRVEAEDLGVYFCSQNTHFPWTFGGGTKLEIK . Is its EC50 below 0.02 nM?
Response: 0.0

Prompt: State whether 0.02 nM exceeds EC50 recorded for humanized antibody hu-mAb2 (VH2+VL2) (antibody, V domains shown, human IgG1/kappa named only as preferred) VH: QVQLVQSGAEVKKPGSSVKVSCKVSGYTFTDHTIHWMKQAPGQGLEWIGYIYPRNGNTKYNEKFKGKATLTADKSTSTAYMELSSLRSEDTAVYFCARYDYDGYFDVWGQGTLVTVSS VL: DVVMTQTPLSLSVTPGQPASISCRSSQSHVHSDGHTYLHWYLQKPGQSPELLIYKVSNRFSGVPDRFSGSGSGTDFTLKISRVEAEDVGVYFCSQNTHFPWTFGGGTKVEIK .
Response: 1.0

Prompt: Just wondering, is EC50 of humanized antibody hu-mAb3 (VH3+VL3) (antibody, V domains shown, human IgG1/kappa named only as preferred) VH: QVQLVQSGAEVKKPGASVKVSCKASGYTITDYNMDWVRQAPGQGLEWIGNINPHNGGSIYNQKFQGRATLTVDKSTSTAYMELSSLRSEDTAVYYCARGDATLVLDYWGQGTTVTVSS VL: DIQLTQSPSSLSASVGDRATITCRASKSVSTSGLSYMHWYQQKPGKAPKVLIYLASNLESGVPARFSGSGSGTDFTLTISSVQPEDFATYYCQHSRELPPTFGQGTKLELK below 0.02 nM?
Response: 0.0

Prompt: Lab note: confirm whether the reported EC50 for this binder is below 0.02 nM, equality not counting. binder: human-mouse chimeric antibody c-mAb3 (antibody, human IgG1, V domains shown, not shown: human IgG1 heavy chain constant region, GenBank No. AK303185.1; human kappa light chain constant region, GenBank No. MG815648.1) VH: EVQLQQSGPELVKPGASVKILCKASGYTITDYNMDWVKRSHGKSLEWIGNINPHNGGSIYNQKFKGKATLTVDKSSSTAFMELRSLTSEDTAVYYCARGDATLVLDYWGQGTSLTVSS VL: DIVLTQSPASLAVSLGQRATISCRASKSVSTSGLSYMHWYQQKPGQPPKVLIYLASNLESGVPARFSGSGSGTDFTLNIHPVEEEDAATYYCQHSRELPPTFGAGTKLELK
Response: 1.0

Prompt: Dear colleague, could you confirm whether EC50 of human-mouse chimeric antibody c-mAb1 (antibody, human IgG1, V domains shown, not shown: human IgG1 heavy chain constant region, GenBank No. AK303185.1; human kappa light chain constant region, GenBank No. MG815648.1) VH: EVQLQQSGPELVKPGTSVEMSCKASGYTFTDYNIHWVRQRHGESLEWLGYINPNNGVTNFNQKFKGKATLTVNKSSSTAYMELRSLTSDDSAVYYCSSGLFDGYPFPYWGQGTLVTVSA VL: DIVLTQSPASLVVSLGQRATISCRASKSVSTSGYNYIHWYQQKPGQPPKLLIFLASNLKSGVPARFSGGGSGTDFTLNIHPVEEDDAATYFCQHNRELPYTFGGGTKVEIK falls below 0.02 nM? Thanks.
Response: 1.0

Taken from patent US20240117061A1.
